Origin of measurements: PubChem BioAssay AID1745844

- Tested on: rodent lifetime carcinogenesis bioassay, tumor incidence TD50
- measurement notes: carcinogenic potency in animals, long-term in vivo studies, CPDB compilation (AID 1745844)
- assay context: mouse; strain AP Alderly Park; males; several routes; site: liver; lesion: hepatocellular carcinoma; dosed 78 weeks; study length 78 weeks
quantity kind: TD50

input: Which TD50 value is on record for COC(=O)C(C)(C)Oc1ccc(-c2ccc(Cl)cc2)cc1 ?
output: 16.8 mg/kg/day

* * *

- System: rodent lifetime carcinogenesis bioassay, tumor incidence TD50
- measurement notes: carcinogenic potency in animals, long-term in vivo studies, CPDB compilation (AID 1745844)
- assay context: rat; strain Fischer 344; males; in feed; site: liver; lesion: several types; types named in the paper; dosed 72 weeks; study length 93 weeks
quantity kind: TD50

input: Fill in: TD50 of Cc1ccccc1N is ___
output: 1000 mg/kg/day

input: Quick check: TD50 of Cc1ccccc1N=O ?
output: 50.7 mg/kg/day
